biological target: T1, human CD3 (human, UniProt P07766 23-207; P04234 22-171; P09693 23-182); assay: FACS on Jurkat cells
T1 construct: whole, on cells; also called hCD3; CD3 on Jurkat cells
T1 sequence (P07766 23-207, chain 1 of 3): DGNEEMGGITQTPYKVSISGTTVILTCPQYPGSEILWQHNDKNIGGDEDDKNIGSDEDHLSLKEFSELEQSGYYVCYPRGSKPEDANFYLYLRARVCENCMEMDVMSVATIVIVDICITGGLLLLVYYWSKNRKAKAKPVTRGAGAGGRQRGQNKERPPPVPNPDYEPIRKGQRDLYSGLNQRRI
T1 sequence (P04234 22-171, chain 2 of 3): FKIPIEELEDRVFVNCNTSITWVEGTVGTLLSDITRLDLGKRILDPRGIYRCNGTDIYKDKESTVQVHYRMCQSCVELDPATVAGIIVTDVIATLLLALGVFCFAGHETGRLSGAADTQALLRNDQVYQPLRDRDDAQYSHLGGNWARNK
T1 sequence (P09693 23-182, chain 3 of 3): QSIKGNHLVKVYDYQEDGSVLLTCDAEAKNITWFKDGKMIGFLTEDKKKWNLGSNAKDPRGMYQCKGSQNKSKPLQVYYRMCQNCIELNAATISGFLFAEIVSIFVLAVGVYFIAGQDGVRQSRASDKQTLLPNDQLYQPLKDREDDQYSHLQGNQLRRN
RECORDED METRIC: EC50 (nM)
Provide the reading as a plain figure in nM.

Here are 3 binders together with their reported answers.
hu40E9-L2H10 (antibody, V domains shown) VH: EVQLVQSGAEVKKPGSSVKVSCKASGYTFSSYVIHWVRQAPGQGLEWMGYINPYNDVIKYNEKFKGRVTLTSDKSTSTAYMELSSLRSEDTAVYYCARDSYYSYEAFAYWGQGTLVTVSS VL: EIVLTQSPDFQSVTPKEKVTITCSASSSVSYMHWYQQKPDQSPKRLIYDTSKLASGVPSRFSGSGSGTDFTLTINSLEAEDAATYYCQQWSSNPPTFGGGTKVEIK ... 2.55
hu40E9-L2H13 (antibody, V domains shown) VH: EVQLVQSGAEVKKPGSSVKVSCKASGYTFSSYVIHWVRQAPGQGLEWMGYINPYNDVIKYNEKFKGRVTLTSDKSTSTAYMELSSLRSEDTAVYYCARDGYYSYDGFAYWGQGTLVTVSS VL: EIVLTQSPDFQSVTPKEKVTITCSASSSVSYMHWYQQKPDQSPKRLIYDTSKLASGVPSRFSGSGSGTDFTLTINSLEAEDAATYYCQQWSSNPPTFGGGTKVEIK ... 83.7
hu40E9-L4H3 (antibody, V domains shown) VH: EVQLVQSGAEVKKPGSSVKVSCKASGYTFSSYVIHWVRQAPGQGLEWMGYINPYNDVIKYNEKFKGRVTLTSDKSTSTAYMELSSLRSEDTAVYYCARDSYYSYDGFAYWGQGTLVTVSS VL: EIVLTQSPDFQSVTPKEKVTITCSASSSVSYMHWYQQKPDQSPKRLIYDTSKLASGVPSRFSGSGSGTDFTLTINSLEAEDAATYYCQQWRSRPPTFGGGTKVEIK ... 1.59

In the following, a different binder is considered.
Query string: Fill in reported EC50 for this entry: hu40E9-L2H6 (antibody, V domains shown) VH: EVQLVQSGAEVKKPGSSVKVSCKASGYTFSSYVIHWVRQAPGQGLEWMGYINPYNDVIKYNEKFKGRVTLTSDKSTSTAYMELSSLRSEDTAVYYCARESFSSYDGFAYWGQGTLVTVSS VL: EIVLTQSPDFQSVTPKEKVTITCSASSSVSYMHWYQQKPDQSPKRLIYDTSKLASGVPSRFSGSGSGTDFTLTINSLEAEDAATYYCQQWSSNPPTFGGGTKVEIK
Result string: 4.17
